Listing of entries alongside the reported survival.
- Test system: DeltatarO mutant
- protocol.description: S. aureus survival, RN4220 and DeltatarO strains – OD600, teichoic acid synthesis inhibitors, primary screen (AID 463173)
- condition.info: S. aureus RN4220 wild type/DeltatarO growth, OD600, 18 h, hits give low values, screened at 18.75 µg/mL (by protocol)
Out of some 52,000 compounds screened, about 4,300 (8.3%) were called active. The sample holds actives, similar compounds and a random draw of the others, so the mix is not that of the screen.

molecule: O=C(NC1CCCCCC1)C1CCN(C(=O)N2CCOc3ccc(Cl)cc32)CC1
experimental.target: DeltatarO mutant
scale.unit: %
survival: 46

molecule: Cc1ccc2c(c1)N(C(=O)N1CCC(C(=O)NC3CCCCCC3)CC1)CCO2
experimental.target: DeltatarO mutant
scale.unit: %
survival: 82

molecule: CC1CCCN(Cc2nc3c(c(=O)n(C)c(=O)n3C)n2Cc2ccc(Cl)cc2)C1 (stereo not given)
experimental.target: DeltatarO mutant
scale.unit: %
survival: 90

molecule: CC(=O)N1c2ccc(S(=O)(=O)NCCC(=O)Nc3ccc(Br)c(C)c3)cc2CC1C (stereo not given)
experimental.target: DeltatarO mutant
scale.unit: %
survival: 90

molecule: CCOc1ccc(NC(=O)Cn2c3ncccc3c(=O)n2-c2ccc(CC)cc2)cc1
experimental.target: DeltatarO mutant
scale.unit: %
survival: 85

molecule: Cc1c(CNC2CCCCC2)c(C(=O)O)c(C)n1Cc1ccccc1F
experimental.target: DeltatarO mutant
scale.unit: %
survival: 88

molecule: CC1CN(C(=O)N2CCC(C(=O)NCc3ccccc3F)CC2)c2cc(Cl)ccc2O1 (stereo not given)
experimental.target: DeltatarO mutant
scale.unit: %
survival: 60

molecule: O=C(NCCC1=CCCCC1)C1CCN(C(=O)N2CCOc3ccccc32)CC1
experimental.target: DeltatarO mutant
scale.unit: %
survival: 72

molecule: CCOC(=O)c1cnc2ccc(Cl)cc2c1Nc1ccc(N2CCOCC2)cc1
experimental.target: DeltatarO mutant
scale.unit: %
survival: 0

molecule: COc1ccc(OC)c(NC(=O)c2c(NCc3sccc3C)sc3c2CCCCC3)c1
experimental.target: DeltatarO mutant
scale.unit: %
survival: 78

molecule: COc1ccc(NC(=O)c2sc3nc(-c4cc5ccc(OC)cc5oc4=O)[nH]c(=O)c3c2C)cc1
experimental.target: DeltatarO mutant
scale.unit: %
survival: 46

molecule: Cc1c2cnn(CC(=O)N3CCN(c4ccccc4)CC3)c(=O)c2c(C)n1Cc1ccc(F)cc1
experimental.target: DeltatarO mutant
scale.unit: %
survival: 67

molecule: COc1ccc(NC(=O)c2sc3nc[nH]c(=O)c3c2C)cc1
experimental.target: DeltatarO mutant
scale.unit: %
survival: 75

molecule: O=C(Cc1ccccc1)N(Cc1cccnc1)c1nc2ccc(F)cc2s1
experimental.target: DeltatarO mutant
scale.unit: %
survival: 86

molecule: CCCCCOc1ccc(/C=C/C(=O)Nc2sc3c(c2C(=O)OCC)CCC3)cc1OC
experimental.target: DeltatarO mutant
scale.unit: %
survival: 66

molecule: CCOC(=O)c1cnc2ccc(C(=O)OC)cc2c1Nc1ccc(OCc2ccccc2Cl)cc1
experimental.target: DeltatarO mutant
scale.unit: %
survival: 151

molecule: CCc1ccccc1NC(=O)C1CCN(C(=O)N2CC(C)Oc3ccc(Cl)cc32)CC1 (stereo not given)
experimental.target: DeltatarO mutant
scale.unit: %
survival: 55

molecule: CCOC(=O)c1cc(-c2ccc(OC)cc2)n(CCC(=O)Nc2cccc(C(C)=O)c2)c1C
experimental.target: DeltatarO mutant
scale.unit: %
survival: 64

molecule: CC1CN(C(=O)N2CCC(C(=O)NCCC3=CCCCC3)CC2)c2cc(Cl)ccc2O1 (stereo not given)
experimental.target: DeltatarO mutant
scale.unit: %
survival: 65

molecule: Cc1ccc(NCc2nc3ccccc3n2CCOc2ccccc2C)cc1
experimental.target: DeltatarO mutant
scale.unit: %
survival: 3

molecule: CCOC(=O)c1cnc2ccc(OC)cc2c1Nc1cccc(C(C)=O)c1
experimental.target: DeltatarO mutant
scale.unit: %
survival: 9

molecule: COC(=O)c1ccc(NC(=O)CC2C(=O)N(c3ccc(Cl)cc3)C(=O)N2Cc2cccs2)cc1 (stereo not given)
experimental.target: DeltatarO mutant
scale.unit: %
survival: 102

molecule: O=C(NCCC1=CCCCC1)C1CCN(C(=O)N2CCOc3ccc(Cl)cc32)CC1
experimental.target: DeltatarO mutant
scale.unit: %
survival: 47

molecule: CNC(=O)C1CCN(C(=O)N2CC(C)Oc3ccc(Cl)cc32)CC1 (stereo not given)
experimental.target: DeltatarO mutant
scale.unit: %
survival: 59

molecule: Cc1cc(C(=O)Nc2ccc(-n3c(C)nc4ccccc4c3=O)cc2)ccc1[N+](=O)[O-]
experimental.target: DeltatarO mutant
scale.unit: %
survival: 131
